Source of measurements: patent US20250145711A1

Target: T1, TRCW5 antigen (CD3δε-Fc-Avi) (biotinylated (site not stated))
T1 construct: also called recombinant CD3
T1 sequence (chain, as listed by the source mutant limits assumed): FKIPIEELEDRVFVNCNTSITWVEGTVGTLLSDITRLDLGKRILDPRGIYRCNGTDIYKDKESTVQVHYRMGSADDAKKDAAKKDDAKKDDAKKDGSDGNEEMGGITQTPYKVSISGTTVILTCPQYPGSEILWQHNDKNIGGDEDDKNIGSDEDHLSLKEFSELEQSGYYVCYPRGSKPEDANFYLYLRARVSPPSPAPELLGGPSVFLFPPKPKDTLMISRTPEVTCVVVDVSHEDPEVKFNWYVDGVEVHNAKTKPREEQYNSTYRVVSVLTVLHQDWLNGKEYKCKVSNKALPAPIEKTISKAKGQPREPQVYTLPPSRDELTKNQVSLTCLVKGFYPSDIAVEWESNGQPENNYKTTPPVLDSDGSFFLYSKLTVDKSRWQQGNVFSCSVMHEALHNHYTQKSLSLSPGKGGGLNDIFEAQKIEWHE
Assay: binding after heat
Here, each record is paired with measured % Retained 60° C. data.
Give your result in % as a bare value.

Binder	% Retained 60° C. / %
CD3B2051 N106K (scFv) scFv: QVQLVQSGAEVKKPGSSVKVSCKASGYTFTRSTMHWVKQAPGQGLEWMGYINPSSAYTNYNQKFQGRVTLTADKSTSTAYMELSSLRSEDTAVYYCASPQVHYDYKGFPYWGQGTLVTVSSGGSEGKSSGSGSESKSTGGSEIVLTQSPATLSASPGERVTLSCSASSSVSYMNWYQQKPGQAPRRLIYDSSKLASGVPARFSGSGSGRDYTLTISSLEPEDFAVYYCQQWSRNPPTFGGGTKVEIK	91.3

Quick one: % Retained 60° C. for CD3B2030 N106G (scFv) scFv: QVQLVQSGAEVKKPGSSVKVSCKASGYTFTRSTMHWVKQAPGQGLEWIGYINPSSAYTNYNQKFQGRVTLTADKSTSTAYMELSSLRSEDTAVYYCASPQVHYDYGGFPYWGQGTLVTVSSGGSEGKSSGSGSESKSTGGSEIVLTQSPATLSASPGERVTLSCSASSSVSYMNWYQQKPGQAPRRWIYDSSKLASGVPARFSGSGSGRDYTLTISSLEPEDFAVYYCQQWSRNPPTFGGGTKVEIK ?
59.8
